Measured values drawn from ChEMBL document CHEMBL1817572 for this set.

Biological target: Vasopressin V1b receptor (Homo sapiens, UniProt P47901)
Sequence (P47901 whole entry): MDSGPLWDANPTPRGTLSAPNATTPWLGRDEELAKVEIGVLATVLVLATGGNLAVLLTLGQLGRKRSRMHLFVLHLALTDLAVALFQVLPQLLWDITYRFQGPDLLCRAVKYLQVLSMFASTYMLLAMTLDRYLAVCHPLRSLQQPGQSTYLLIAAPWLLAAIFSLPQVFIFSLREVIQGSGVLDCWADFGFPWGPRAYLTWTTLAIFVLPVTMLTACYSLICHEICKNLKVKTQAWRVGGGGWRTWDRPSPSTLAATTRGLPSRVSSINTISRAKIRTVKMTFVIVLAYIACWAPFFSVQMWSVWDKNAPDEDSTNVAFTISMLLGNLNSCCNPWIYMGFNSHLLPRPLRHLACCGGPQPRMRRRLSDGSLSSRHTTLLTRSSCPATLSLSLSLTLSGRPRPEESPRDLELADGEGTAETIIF
Assay: Agonist activity at recombinant human vasopressin V1b receptor expressed in Flp-In-293 cells by luciferase reporter gene assay
Type: functional, cell-based
Details: read-out: EC50
Bridge positions count the residues as written; N and C are the ends. Square brackets hold non-standard residues; d marks the D form. Peptide text beside a SMILES is read from it. * marks the point of attachment. Orn = NCCC[C@H](N)C(=O)O; Dab = NCC[C@H](N)C(=O)O; NHCH2CH2OH = OCCN*
Answer each item with its documented pEC50.
One number for each entry, as −log10 of the molar value.

1. CC[C@H](C)[C@@H]1NC(=O)[C@H](Cc2ccccc2)NC(=O)[C@@H](N)CSSC[C@@H](C(=O)N2CCC[C@H]2C(=O)N[C@@H](CCCN)C(=O)NCC(N)=O)NC(=O)[C@H](CC(N)=O)NC(=O)[C@H](CC(=O)NCCO)NC1=O (H-CFID(NHCH2CH2OH)NCP[Orn]G-NH2; disulfide 1-6)
7.59

Dear colleague, could you send me pEC50 for each of the items below? Thanks.
1. CC[C@H](C)[C@@H]1NC(=O)[C@H](Cc2ccccc2)NC(=O)[C@@H](N)CSSC[C@@H](C(=O)N2CCC[C@H]2C(=O)N[C@@H](CCCN)C(=O)NCC(N)=O)NC(=O)[C@H](CC(N)=O)NC(=O)[C@H](CC(=O)N(C)C)NC1=O (H-CFID(NMe2)NCP[Orn]G-NH2; disulfide 1-6)
2. CCNC(=O)C[C@@H]1NC(=O)[C@H]([C@@H](C)CC)NC(=O)[C@H](Cc2ccccc2)NC(=O)[C@@H](N)CSSC[C@@H](C(=O)N2CCC[C@H]2C(=O)N[C@@H](CCN)C(=O)NCC(N)=O)NC(=O)[C@H](CC(N)=O)NC1=O (H-CFID(NHEt)NCP[Dab]G-NH2; disulfide 1-6)

-- reply
1. 7.21
2. 7.68

* * *

Species on record: Homo sapiens
Test: Selectivity ratio of EC50 for human oxytocin receptor to EC50 for human vasopressin V1a receptor
Bridge positions count the residues as written; N and C are the ends. Square brackets hold non-standard residues; d marks the D form. Peptide text beside a SMILES is read from it. * marks the point of attachment. Ala(2-furyl) = N[C@@H](Cc1ccco1)C(=O)O; Orn = NCCC[C@H](N)C(=O)O; Dab = NCC[C@H](N)C(=O)O; Ac4c = NC1(C(=O)O)CCC1; NHiBu = CC(C)CN*; X3 = OCCOCCN*
assay.endpoint: Ratio EC50

Give Ratio EC50 for all molecules that follow.
1. CC[C@H](C)[C@@H]1NC(=O)[C@H](Cc2ccco2)NC(=O)[C@@H](N)CSSC[C@@H](C(=O)N2CCC[C@H]2C(=O)N[C@@H](CCN)C(=O)NCC(N)=O)NC(=O)[C@H](CC(N)=O)NC(=O)[C@H](CCC(N)=O)NC1=O (H-C[Ala(2-furyl)]IQNCP[Dab]G-NH2; disulfide 1-6)
2. CC[C@H](C)[C@@H]1NC(=O)C2(CCC2)NC(=O)[C@@H](N)CSSC[C@@H](C(=O)N2CCC[C@H]2C(=O)N[C@@H](CCN)C(=O)NCC(N)=O)NC(=O)[C@H](CC(N)=O)NC(=O)[C@H](CC(N)=O)NC1=O (H-C[Ac4c]INNCP[Dab]G-NH2; disulfide 1-6)

-- reply
[47, "> 830"]

Please state, for each entry, its recorded Ratio EC50.
1. CC[C@H](C)[C@@H]1NC(=O)[C@H](Cc2ccccc2)NC(=O)[C@@H](N)CSSC[C@@H](C(=O)N2CCC[C@H]2C(=O)N[C@@H](CCCN)C(=O)NCC(N)=O)NC(=O)[C@H](CC(N)=O)NC(=O)[C@H](CCC(=O)NCC(C)C)NC1=O (H-CFIE(NHiBu)NCP[Orn]G-NH2; disulfide 1-6)
2. CC[C@H](C)[C@@H]1NC(=O)[C@H](Cc2ccccc2)NC(=O)[C@@H](N)CSSC[C@@H](C(=O)N2CCC[C@H]2C(=O)N[C@@H](CCCN)C(=O)NCC(N)=O)NC(=O)[C@H](CC(N)=O)NC(=O)[C@H](CC(=O)NCCOCCO)NC1=O (H-CFID(X3)NCP[Orn]G-NH2; disulfide 1-6)

-- reply
1: > 470; 2: > 2000

* * *

Provide the recorded Ratio EC50 for the entries that follow.
Species on record: Homo sapiens
Experiment: Selectivity ratio of EC50 for human oxytocin receptor to EC50 for human vasopressin V1a receptor
Bridge positions count the residues as written; N and C are the ends. Square brackets hold non-standard residues; d marks the D form. Peptide text beside a SMILES is read from it. Ala(2-furyl) = N[C@@H](Cc1ccco1)C(=O)O; Orn(iPr) = CC(C)NCCC[C@H](N)C(=O)O; Orn(Pr) = CCCNCCC[C@H](N)C(=O)O
One number for each entry.

Hi, could you look up Ratio EC50 for each item in my list?
1. CCCNCCC[C@H](NC(=O)[C@@H]1CCCN1C(=O)[C@@H]1CSSC[C@H](N)C(=O)N[C@@H](Cc2ccccc2)C(=O)N[C@@H]([C@@H](C)CC)C(=O)N[C@@H](CCC(N)=O)C(=O)N[C@@H](CC(N)=O)C(=O)N1)C(=O)NCC(N)=O (H-CFIQNCP[Orn(Pr)]G-NH2; disulfide 1-6)
2. CC[C@H](C)[C@@H]1NC(=O)[C@H](Cc2ccco2)NC(=O)[C@@H](N)CSSC[C@@H](C(=O)N2CCC[C@H]2C(=O)N[C@@H](CCCNC(C)C)C(=O)NCC(N)=O)NC(=O)[C@H](CC(N)=O)NC(=O)[C@H](CC(N)=O)NC1=O (H-C[Ala(2-furyl)]INNCP[Orn(iPr)]G-NH2; disulfide 1-6)

-- reply
1: 150; 2: 64

-- ask Quick one: Ratio EC50 for CC[C@H](C)[C@@H]1NC(=O)[C@H](Cc2ccccc2)NC(=O)[C@@H](N)CSSC[C@@H](C(=O)N2CCC[C@H]2C(=O)N[C@@H](CCCNC(C)C)C(=O)NCC(N)=O)NC(=O)[C@H](CC(N)=O)NC(=O)[C@H](CCC(N)=O)NC1=O (H-CFIQNCP[Orn(iPr)]G-NH2; disulfide 1-6) ?
-- reply 86

* * *

Would you kindly list Ratio EC50 for each of these molecules?
Biological target: Vasopressin V1a/V2 (Homo sapiens) (UniProt P30518+P37288)
Sequence (P30518 whole entry, looked up): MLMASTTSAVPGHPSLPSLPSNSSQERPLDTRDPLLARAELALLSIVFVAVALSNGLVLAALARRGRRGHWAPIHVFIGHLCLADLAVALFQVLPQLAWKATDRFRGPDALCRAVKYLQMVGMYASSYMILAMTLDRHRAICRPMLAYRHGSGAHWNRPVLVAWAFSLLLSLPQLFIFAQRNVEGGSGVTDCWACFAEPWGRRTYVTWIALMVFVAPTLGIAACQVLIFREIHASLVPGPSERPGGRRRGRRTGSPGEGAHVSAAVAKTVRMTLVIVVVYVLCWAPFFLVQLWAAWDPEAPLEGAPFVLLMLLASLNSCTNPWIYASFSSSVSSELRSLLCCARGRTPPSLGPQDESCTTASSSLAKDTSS
Sequence (P37288 whole entry, looked up): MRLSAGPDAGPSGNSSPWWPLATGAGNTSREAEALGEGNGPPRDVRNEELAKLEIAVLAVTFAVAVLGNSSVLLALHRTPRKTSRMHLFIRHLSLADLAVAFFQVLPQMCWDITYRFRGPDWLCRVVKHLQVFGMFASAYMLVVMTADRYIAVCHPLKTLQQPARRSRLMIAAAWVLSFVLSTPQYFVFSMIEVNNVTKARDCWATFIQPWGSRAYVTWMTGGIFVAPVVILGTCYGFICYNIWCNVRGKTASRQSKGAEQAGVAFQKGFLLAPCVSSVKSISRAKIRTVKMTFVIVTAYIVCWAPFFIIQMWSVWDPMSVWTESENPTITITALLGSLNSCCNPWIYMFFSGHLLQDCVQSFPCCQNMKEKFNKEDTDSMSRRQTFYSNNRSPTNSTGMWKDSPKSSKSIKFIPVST
Experiment: Selectivity ratio of EC50 for human vasopressin V2 receptor to EC50 for human vasopressin V1a receptor
Numbered stars: 1 amine (or outer) side, 2 acyl side, 3 side chain; on linkers, the order of the positions; unused ones are H or OH. Bridge positions count the residues as written; N and C are the ends. Square brackets hold non-standard residues; d marks the D form. Peptide text beside a SMILES is read from it. * marks the point of attachment. Orn(Me) = CN(CCC[C@H](N[*:1])C(=O)[*:2])[*:3]; Orn(iPr) = CC(C)NCCC[C@H](N)C(=O)O; 2Thi = N[C@@H](Cc1cccs1)C(=O)O; Cha = N[C@@H](CC1CCCCC1)C(=O)O; Orn = NCCC[C@H](N)C(=O)O; Dab = NCC[C@H](N)C(=O)O; NHOH = ON*

Solved cases (4 shown):
1. CC[C@H](C)[C@@H]1NC(=O)[C@H](CC2CCCCC2)NC(=O)[C@@H](N)CSSC[C@@H](C(=O)N2CCC[C@H]2C(=O)N[C@@H](CCCN)C(=O)NCC(N)=O)NC(=O)[C@H](CC(N)=O)NC(=O)[C@H](CC(N)=O)NC1=O (H-C[Cha]INNCP[Orn]G-NH2; disulfide 1-6)
> 3100
2. CC[C@H](C)[C@@H]1NC(=O)[C@H](Cc2ccccc2)NC(=O)[C@@H](N)CSSC[C@@H](C(=O)N2CCC[C@H]2C(=O)N[C@@H](CCCNC)C(=O)NCC(N)=O)NC(=O)[C@H](CC(N)=O)NC(=O)[C@H](CCC(N)=O)NC1=O (H-CFIQNCP[Orn(Me)]G-NH2; disulfide 1-6)
500
3. CC[C@H](C)[C@@H]1NC(=O)[C@H](Cc2ccccc2)NC(=O)[C@@H](N)CSSC[C@@H](C(=O)N2CCC[C@H]2C(=O)N[C@@H](CCCN)C(=O)NCC(N)=O)NC(=O)[C@H](CC(N)=O)NC(=O)[C@H](CC(=O)NO)NC1=O (H-CFID(NHOH)NCP[Orn]G-NH2; disulfide 1-6)
630
4. CC[C@H](C)[C@@H]1NC(=O)[C@H](Cc2cccs2)NC(=O)[C@@H](N)CSSC[C@@H](C(=O)N2CCC[C@H]2C(=O)N[C@@H](CCCNC(C)C)C(=O)NCC(N)=O)NC(=O)[C@H](CC(N)=O)NC(=O)[C@H](CCC(N)=O)NC1=O (H-C[2Thi]IQNCP[Orn(iPr)]G-NH2; disulfide 1-6)
560

Moving on to the next molecule.
-- ask Vasopressin V1a/V2 (Homo sapiens) (UniProt P30518+P37288) / Ratio EC50 / CC[C@H](C)[C@@H]1NC(=O)[C@H](CC2CCCCC2)NC(=O)[C@@H](N)CSSC[C@@H](C(=O)N2CCC[C@H]2C(=O)N[C@@H](CCN)C(=O)NCC(N)=O)NC(=O)[C@H](CC(N)=O)NC(=O)[C@H](CCC(N)=O)NC1=O (H-C[Cha]IQNCP[Dab]G-NH2; disulfide 1-6) : value?
-- reply 3000
